test: Cytotoxicity against HSV1-tk gene overexpressing RG2TK+ cells after 72 hrs by MTT assay; assay type: cell-based; conditions: rat
Value Type: CC50

Examples with their reported CC50 follow.
>  <Compound>
O=c1[nH]c(=O)n([C@H]2C[C@H](O)[C@@H](CO)O2)cc1CCCF

>  <Result>
> 1000 µM

$$$$
>  <Compound>
O=c1[nH]c(=O)n([C@@H]2O[C@H](CO)[C@@H](O)[C@@H]2F)cc1CCCCF

>  <Result>
346 µM

$$$$

Now consider a different compound.
Req: Which CC50 reading was recorded for the compound O=c1[nH]c(=O)n([C@H]2C[C@H](O)[C@@H](CO)O2)cc1CCCCF ?
Resp: > 800 µM

----------
test system: RG2; assay: Cellular uptake in RG2 cells assessed per 10^6 cells at 0.2 MBq after 2 hrs; format: ADME, cell-based; conditions: rat, rg2, 2 h
// values below are reported Drug uptake
Kindly write the number and append the unit.

>  <Compound>
O=c1[nH]c(=O)n([C@H]2C[C@H](O)[C@@H](CO)O2)cc1CCC[18F]

>  <Value Type>
Drug uptake

>  <Result>
0.41%

$$$$
>  <Compound>
O=c1[nH]c(=O)n([C@@H]2O[C@H](CO)[C@@H](O)[C@@H]2F)cc1CCCCC[18F]

>  <Value Type>
Drug uptake

>  <Result>
0.24%

$$$$
>  <Compound>
O=c1[nH]c(=O)n([C@H]2C[C@H](O)[C@@H](CO)O2)cc1CCCCC[18F]

>  <Value Type>
Drug uptake

>  <Result>
0.23%

$$$$
>  <Compound>
O=c1[nH]c(=O)n([C@@H]2O[C@H](CO)[C@@H](O)[C@@H]2F)cc1CCCC[18F]

>  <Value Type>
Drug uptake

>  <Result>
0.66%

$$$$
>  <Compound>
O=c1[nH]c(=O)n([C@H]2C[C@H](O)[C@@H](CO)O2)cc1CCCC[18F]

>  <Value Type>
Drug uptake

>  <Result>
0.59%

$$$$

Now consider a different compound.
Req: Which Drug uptake reading was recorded for the compound O=c1[nH]c(=O)n([C@@H]2O[C@H](CO)[C@@H](O)[C@@H]2F)cc1CCC[18F] ?
Resp: 0.38%

----------
experiment: Cellular uptake in HSV1-tk gene overexpressing RG2TK+ cells assessed per 10^6 cells at 0.2 MBq after 2 hrs; type: ADME; settings: rat
// assign Yes if Drug uptake falls strictly below 2%, else No (ties count as No)

Record excerpt, results attached:
>  <Compound>
O=c1[nH]c(=O)n([C@@H]2O[C@H](CO)[C@@H](O)[C@@H]2F)cc1CCCC[18F]

>  <Label Class>
No

$$$$
>  <Compound>
O=c1[nH]c(=O)n([C@@H]2O[C@H](CO)[C@@H](O)[C@@H]2F)cc1CCC[18F]

>  <Label Class>
Yes

$$$$
>  <Compound>
O=c1[nH]c(=O)n([C@H]2C[C@H](O)[C@@H](CO)O2)cc1CCC[18F]

>  <Label Class>
No

$$$$

Req: Drug uptake under 2%? Item: O=c1[nH]c(=O)n([C@H]2C[C@H](O)[C@@H](CO)O2)cc1CCCC[18F]
Resp: No

Req: And the next one, O=c1[nH]c(=O)n([C@H]2C[C@H](O)[C@@H](CO)O2)cc1CCCCC[18F] ?
Resp: No

Req: And the next one, O=c1[nH]c(=O)n([C@@H]2O[C@H](CO)[C@@H](O)[C@@H]2F)cc1CCCCC[18F] ?
Resp: Yes

Data origin, for the record: ChEMBL document CHEMBL1140131
